Listed next: entries and their corresponding Kd.
system: Bcl-XL (single cysteine 152C, Alexa647-labeled, recombinant), Q07817-1
Sequence (Q07817 whole entry): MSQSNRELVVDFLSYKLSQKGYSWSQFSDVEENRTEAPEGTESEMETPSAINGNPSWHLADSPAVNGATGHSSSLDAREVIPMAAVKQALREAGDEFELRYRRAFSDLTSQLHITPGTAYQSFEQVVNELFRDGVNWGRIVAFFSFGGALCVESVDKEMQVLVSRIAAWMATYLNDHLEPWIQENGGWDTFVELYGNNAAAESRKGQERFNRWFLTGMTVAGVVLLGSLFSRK
protocolNotes: FRET
reportedConditions: chain shown with the change; membranes present (liposomes), apparent Kd; 20 nM Alexa568-labeled BimL mutant (FRET donor), Alexa647-labeled Bcl-XL acceptor; parent: 1±1
Write it as a number; the unit nM goes unstated.

| binder | measureUnit | experimentalValue |
| --- | --- | --- |
| BimL (single cysteine Q41C, Alexa568-labeled, recombinant) I132E (protein) MHHHHHHGGSGGTGGSENLYFQGTMAKQPSDVSSECDREGGQLQPAERPPQLRPGAPTSLQTEPCDRSPAPMSCDKSTQTPSPPCQAFNHYLSAMASIRQSQEEPEDLRPEIRIAQELRRIGDEFNETYTRRVFANDYREAEDHPQMVILQLLRFEFRLVWRRH | nM | 2 |
| BimL (single cysteine Q41C, Alexa568-labeled, recombinant) R130A; R134A (protein) MHHHHHHGGSGGTGGSENLYFQGTMAKQPSDVSSECDREGGQLQPAERPPQLRPGAPTSLQTEPCDRSPAPMSCDKSTQTPSPPCQAFNHYLSAMASIRQSQEEPEDLRPEIRIAQELRRIGDEFNETYTRRVFANDYREAEDHPQMVILQLLAFIFALVWRRH | nM | 20 |

Q: Kd lookup needed for BimL (single cysteine Q41C, Alexa568-labeled, recombinant) L129E (protein) MHHHHHHGGSGGTGGSENLYFQGTMAKQPSDVSSECDREGGQLQPAERPPQLRPGAPTSLQTEPCDRSPAPMSCDKSTQTPSPPCQAFNHYLSAMASIRQSQEEPEDLRPEIRIAQELRRIGDEFNETYTRRVFANDYREAEDHPQMVILQLERFIFRLVWRRH , thanks.
Result: 5

Q: Kd lookup needed for BimL (single cysteine Q41C, Alexa568-labeled, recombinant) V124E (protein) MHHHHHHGGSGGTGGSENLYFQGTMAKQPSDVSSECDREGGQLQPAERPPQLRPGAPTSLQTEPCDRSPAPMSCDKSTQTPSPPCQAFNHYLSAMASIRQSQEEPEDLRPEIRIAQELRRIGDEFNETYTRRVFANDYREAEDHPQMEILQLLRFIFRLVWRRH , thanks.
Result: 2

Each recorded value in this set is attributed to paper PMC6980855.
